System: KM12 colon
Assay: NCI tumour cell line growth inhibition, 48 h
quantity: TGI (µM)
Numbers only, in µM.

Examples with answers:
# molecule, reported_measurement
measured = [
    ("S=C=NCc1ccccc1", 15.8),
    ("CCOC(=O)Cn1c(C)c(/C=N/NC(=O)c2cc3c(ccc4ccccc43)o2)c2ccccc21", 1.52),
    ("CC(C)C1SCc2nc3ccccc3n21 (stereo not given)", 45.5),
]

# evaluate next
Exam item: Would you kindly share the measured TGI for CC(=O)O[C@H]1CC[C@]2(C)[C@H]3CC=C4[C@@H]5CC(C)(C)CC[C@]5(C(=O)NCCNCCN)CC[C@@]4(C)[C@]3(C)CC[C@H]2C1(C)C ?
Marked response: 3.17

* * *

Tested on: MDA-MB-435
So I've got a bunch of molecules here, and I need their GI50 values.

Examples with answers:
# molecule, reported_measurement
rows = [
    ("ClC1=NC(Cl)C(Cl)=N/C1=N\\c1ncn[nH]1 (stereo not drawn)", "2240 nM"),
    ("CN(C)C(=O)c1cc2cnc(Nc3ccc(-c4csc5c(=O)cc(N6CCNCC6)oc45)cc3)nc2n1C1CCCC1", "940 nM"),
    ("Cc1ncc(C(=O)Nc2ccc(CN3CCN(C)CC3)c(C(F)(F)F)c2)cc1C#Cc1cnc(N)c2ncccc12", "41.9 nM"),
    ("Nc1ncnc2c(C3OC(CO)C(O)C3O)[nH]nc12 (stereo not drawn)", "356 nM"),
    ("O=C(Nc1ccccc1)NS(=O)(=O)c1ccc(N2N=C3c4ccccc4CC3C2c2ccccn2)cc1 (stereo not drawn)", "21400 nM"),
    ("O=C(NC(=S)NNC(=S)NNc1ccccc1)c1ccccc1", "3470 nM"),
    ("CC(=O)OC1CCC2(C)C(CCC3C4CC=C(C(C)=O)C4(C)OC(=O)CC32)C1 (stereo not drawn)", "1710 nM"),
]

# evaluate next
Exam item: Would you kindly share the measured GI50 for O=C(NNc1ccccc1)OCc1ccccc1 ?
Marked response: 4130 nM

* * *

Test system: A498 renal
Assay: NCI tumour cell line growth inhibition, 48 h
So I've got a bunch of molecules here, and I need their TGI values.

Examples with answers:
# molecule, TGI
records = [
    ("COc1ccc(OC)c(-c2nc3ccccc3c(=O)[nH]2)c1", "> 100 µM"),
    ("Cc1ccc(S(=O)(=O)SCc2ccccc2CSS(=O)(=O)c2ccc(C)cc2)cc1", "> 100 µM"),
    ("CC[C@H](C)C1=C(O)[N@+]2([O-])Oc3ccc(-c4c(O)c(O)c(-c5ccc(OC(C)=O)cc5)c(OC(C)=O)c4OC(C)=O)cc3O[C@]2([C@@H](C)CC)C(=O)N1O", "> 50 µM"),
    ("NC(=S)NNC(=O)CCC(=O)Nc1ccc(Cl)cc1Cl", "> 100 µM"),
    ("COc1ccc(OC)c(C#Cc2ccc(OC)c(C(=O)NCCc3ccc(F)cc3)c2)c1", "> 100 µM"),
]

Could you report TGI for every entry in the following list?
1. CN(C)c1nc(=NCc2cccs2)ss1
2. CCC[CH2][Ge]([CH2]CCC)([CH2]CCC)[O]C(=O)C(OC)c1ccccc1 (stereo not drawn)
3. CN1C(=O)[C@@H]2N(CSC2(C)C)C1=S

Marked response:
1. > 10 µM
2. > 100 µM
3. > 100 µM

* * *

So I've got a bunch of molecules here, and I need their TGI values.
Tested on: OVCAR-4 ovarian
Assay: NCI tumour cell line growth inhibition, 48 h

# molecule, reported_measurement
data = [
    ("CN(C)/C=C(\\C(=O)c1ccccc1)n1nc(-c2ccccc2)cc1-c1ccccc1", "> 10 µM"),
    ("O=C(Nc1ccccc1)NS(=O)(=O)c1ccc(N2N=C3c4ccccc4CC3C2c2ccccn2)cc1 (stereo unspecified)", "> 100 µM"),
    ("CC(=O)c1nc2ccccc2n1CC(=O)c1ccc(Cl)cc1", "> 100 µM"),
    ("Cc1nc2ccccc2c(=O)n1NC(=S)Nc1cccc(Cl)c1", "> 100 µM"),
    ("CCN(CC)CCn1c2cc3c(cc2c(=O)c2cccnc21)OCO3", "> 10 µM"),
]

# evaluate next
Exam item: Would you kindly share the measured TGI for COc1ccc(OC)c(-c2nc3ccccc3c(=O)[nH]2)c1 ?
Marked response: > 100 µM

* * *

Tested on: BT-549 breast
Assay: NCI tumour cell line growth inhibition, 48 h
quantity: TGI

Examples with answers:
# compound, reported_measurement
measured = [
    ("O=C(Cc1ccccc1)NNc1nc(NNC(=O)c2ccncc2)nc(Nc2ccccc2)n1", "> 10 µM"),
    ("COc1ccc(C2CC(c3ccc4ccccc4c3O)=NN2C(C)=O)cc1OC (stereo unspecified)", "> 100 µM"),
    ("O=C(Nc1sccc1S(=O)(=O)c1ccc(Cl)cc1)C(F)(F)F", "> 100 µM"),
    ("Cc1cc(S(=O)(=O)NC2=NC(c3ccccc3)c3ccccc3N2)c(S)cc1Cl (stereo unspecified)", "> 100 µM"),
    ("Nc1ccc(Nc2c3ccccc3nc3ccccc23)cc1", "> 10 µM"),
]

Could you report TGI for every entry in the following list?
1. CC(=O)c1nc2ccccc2n1CC(=O)c1ccc(Cl)cc1
2. CC1(c2nc3ccccc3[nH]2)CCC(C(N)=O)C(C)(C)O1 (stereo unspecified)
3. COc1cc2ccnc3c2c(c1OC)-c1ccc(=O)ccc1-3
4. CC1(O)CC23CC1CCC2(C)C12CCCC(C)(C(=O)O1)C2CC3O (stereo unspecified)
5. COc1ccc2c(c1)sc1nc(-c3ccccc3)c(-c3ccc(O)c(OC)c3)n12
6. Cc1ccc(N=Nc2c(N)nn(-c3ccccc3)c2N)cc1

Marked response:
["> 100 µM", "> 100 µM", "> 100 µM", "> 100 µM", "> 100 µM", "> 100 µM"]

* * *

System: BT-549 breast
Assay: NCI tumour cell line growth inhibition, 48 h
So I've got a bunch of compounds here, and I need their TGI values.

Examples with answers:
# compound, quantity, reported_measurement
records = [
    ("CNNC(=N\\S(=O)(=O)c1cc(C(=O)Nc2ccc(Cl)cc2)c(Cl)cc1SCc1ccccc1)/N=C/c1ccc([N+](=O)[O-])s1", "TGI", "> 100 µM"),
    ("Nc1c(C(=O)c2cccc(CCC3(O)CCCC3)c2)cnn1-c1ccc(F)cc1", "TGI", "> 25 µM"),
    ("C/C1=C\\C/C=C(\\C)[C@H]2CC(CC/C(C)=C/CC1)[C@@](C)(CO)O2", "TGI", "> 100 µM"),
    ("COc1ccc(CC2c3cc(OC)c(OC)c(OC)c3CC[N+]2(C)C)cc1Oc1ccc(CC2c3cc4c(c(OC)c3CCN2C)OCO4)cc1 (stereo not given)", "TGI", "> 100 µM"),
]

Exam item: Entry NC1=CN(Cc2ccccc2)C2=N/C(=C\c3ccccc3)C(=O)N12 , system BT-549 breast: what TGI was measured?
Marked response: > 100 µM

* * *

System: IGROV1 ovarian
Experiment: NCI tumour cell line growth inhibition, 48 h; in the data active means GI50 below about 0.43 µM; inactive means the rest
Returns: one label drawn from active, inactive

Please review the entries below; each comes with its answer.
# compound, class_name
data = [
    ("CCOC(=O)c1ccc(Nc2sc(C(=O)c3cccc([N+](=O)[O-])c3)c(N)c2C#N)cc1", "active"),
    ("CCC[CH2][Ge]([CH2]CCC)([CH2]CCC)[O]C(=O)C(O)c1ccccc1 (centres undefined)", "inactive"),
    ("O=Cc1ccc(Oc2c3ccccc3nc3occc23)cc1", "inactive"),
    ("CO[C@H]1C[C@@H]2CC[C@@H](C)[C@@](O)(O2)C(=O)C(=O)N2CCCC[C@H]2C(=O)O[C@H]([C@H](C)C[C@@H]2CC[C@@H](OP(C)(C)=O)[C@H](OC)C2)CC(=O)[C@H](C)/C=C(\\C)[C@@H](O)[C@@H](OC)C(=O)[C@H](C)C[C@H](C)/C=C/C=C/C=C/1C", "active"),
]

Exam item: State the result this test recorded for COc1ccc2[nH]c(=O)c(/C=C/C(=O)/C=C/c3ccc(O)c(OC)c3)cc2c1 .
Marked response: inactive

Exam item: State the result this test recorded for Nc1ccn(C2CC(O)C(CO)O2)c(=O)n1 (centres undefined) .
Marked response: inactive

Exam item: State the result this test recorded for CNNC(=N\S(=O)(=O)c1cc(C(=O)Nc2ccc(Cl)cc2)c(Cl)cc1SCc1ccccc1)/N=C/c1ccc([N+](=O)[O-])s1 .
Marked response: inactive

Exam item: State the result this test recorded for COC(=O)c1ccc2c(c1)C(=O)c1c-2n(CCCN)c(=O)c2cc([N+](=O)[O-])ccc12 .
Marked response: active

Exam item: State the result this test recorded for O=C1c2cc3c(cc2[C@@H]2[C@H]1c1ccc([N+](=O)[O-])cc1C(=O)N2CCCCl)OCO3 .
Marked response: active
